src = paper PMC11422593

Biological target: HLA-B∗39:01 (purified MHC molecules) (human)
Experiment: radioligand binding

| binder | unit of measure | IC50 |
| --- | --- | --- |
| NRVMLPKAA [… (NLRP2 320 to 328), free peptide] | µM | 0.035 |
| WMRLLPLLA [… (human insulin, position 4)] | µM | 0.865 |
| FLFLFAVG [FLFLFAVG (human G6Pase 2, position 213)] | µM | 17.9 |
| SASIPLTVVA [… (human G6Pase 2, position 328)] | µM | 30.9 |
